Measured self-cleavage kobs at 160 uM GlcN6P accompanies every entry in the list below.
B1: glmS ribozyme (parent)
chain: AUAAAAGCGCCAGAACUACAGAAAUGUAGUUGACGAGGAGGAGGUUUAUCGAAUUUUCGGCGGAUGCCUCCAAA

# Variants of: B1
# protocol_description: self-cleavage kobs at 160 uM GlcN6P; higher = faster cleavage; RNA array
# measurement_conditions: with glucosamine-6-phosphate
Fewer inactive variants are shown than the library holds.

Use these answered entries as a reference point.
changes="A33G U47G A48C G51C" reported_measurement="< 1e-05 s⁻¹"
changes="U49G U65A" reported_measurement="< 1e-05 s⁻¹"
changes="G7A A12C" reported_measurement="< 1e-05 s⁻¹"
changes="U49C G66C" reported_measurement="< 1e-05 s⁻¹"
changes="A42C C61U" reported_measurement="< 1e-05 s⁻¹"

For the next question, use this variant.
Query string: Give recorded self-cleavage kobs at 160 uM GlcN6P. C11A A14C U31G U65G
Result string: < 1e-05 s⁻¹
